assay: NCI Yeast Anticancer Drug Screen. Data for the CLN2oe strain (AID 163);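 further: 0% = growth of vehicle-only control cultures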; conditions: S. cerevisiae CLN2oe strain, at 3.7 µM, stronger effect = higher value
This is part of a sample that, as a whole, favours compounds with a hit. Of some 79,000 tested, about 15% had one in any assay.
Measured Property: growth inhibition (%)
Answer format: numeric, % implied, no suffix.

Report growth inhibition, nothing else, for this compound: COc1ccc2c3c1OC(C)C31CC(=O)CCC1CC2 (stereo unspecified) -8

Report growth inhibition, nothing else, for this compound: O=C1/C(=C/c2ccc(Cl)c(Cl)c2)CNC/C1=C\c1ccc(Cl)c(Cl)c1 7

Report growth inhibition, nothing else, for this compound: C1=CCN([B-](c2ccccc2)[C+]2CCCCC2)C=C1 -6

Report growth inhibition, nothing else, for this compound: Cc1cc2nc3ccccc3n2c2ccccc12 -24

Report growth inhibition, nothing else, for this compound: CCOc1ccc2nc3ccccc3c(N)c2c1 16

Report growth inhibition, nothing else, for this compound: CCc1c(Cl)c(C)c(Cl)c(O)c1Cl 17

----------
assay: NCI Yeast Anticancer Drug Screen. Data for the sgs1 mgt1 strain (AID 161);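 further: 0% = growth of cultures given vehicle only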; conditions: S. cerevisiae sgs1 mgt1 strain, at 5.0 µM (retest, dose inferred, filed as 0.5), stronger effect = higher value
This is part of a sample that, as a whole, favours compounds with a hit. Of some 79,000 tested, about 15% had one in any assay.
Measured Property: growth inhibition (%)
Answer format: numeric, % implied, no suffix.

Report growth inhibition, nothing else, for this compound: Nc1cc2ccccc2cc1N 19

Report growth inhibition, nothing else, for this compound: CC(CC/C(=N/O)c1ccccc1)(CC/C(=N\O)c1ccccc1)[N+](=O)[O-] (stereo not drawn) 0

Report growth inhibition, nothing else, for this compound: CCC(C)COC(=O)Nc1cccc(Cl)c1 (stereo not drawn) -4

Report growth inhibition, nothing else, for this compound: COC(=N)c1ccc(O)c(C)c1 -53

Report growth inhibition, nothing else, for this compound: O=S(=O)(c1ccccc1)N1CN2CN(C1)CN(S(=O)(=O)c1ccccc1)C2 -11

Report growth inhibition, nothing else, for this compound: CN(C)N=Nc1ccc(N(C)C)cc1 2

Report growth inhibition, nothing else, for this compound: CC(=O)CCC1=C(C)C(=O)C(=O)C(C)=C1O 6

Report growth inhibition, nothing else, for this compound: COc1ccc2nc(CCc3ccccc3)ccc2c1 5

Report growth inhibition, nothing else, for this compound: COC(=O)c1ccccc1N=NNc1cccc(SC)c1 1

Report growth inhibition, nothing else, for this compound: OC(CC(O)(C(F)(F)F)C(F)(F)F)c1ccc(C(O)CC(O)(C(F)(F)F)C(F)(F)F)cc1 (stereo not drawn) 26

Report growth inhibition, nothing else, for this compound: CCN1CCC(O)(c2ccc(Oc3ccc(C)cc3)cc2)C(C(=O)c2ccc(Oc3ccc(C)cc3)cc2)C1 (stereo not drawn) 16

Report growth inhibition, nothing else, for this compound: O=C(NCCCCN1CC2CCCC2C1)C(C1CCCCC1)C1CCCCC1 (stereo not drawn) 23

Report growth inhibition, nothing else, for this compound: O=Cc1ccccc1C=O -3

Report growth inhibition, nothing else, for this compound: O=C(/C=C/c1ccsc1)c1cccs1 -1

Report growth inhibition, nothing else, for this compound: CCOc1ccc(N)c(S)c1 9

Report growth inhibition, nothing else, for this compound: CC1(C)C(O)OC(O)C1(C)C (stereo not drawn) -9

Report growth inhibition, nothing else, for this compound: Cc1ccc(NC(Nc2ccc(C)cc2C)=C(C(Cl)=C(Cl)Cl)[N+](=O)[O-])c(C)c1 94

Report growth inhibition, nothing else, for this compound: COc1cc2oc3ccccc3c(=O)c2cc1CSc1ccccc1N 3

Report growth inhibition, nothing else, for this compound: O=NC1c2cccc3cccc(c23)C1N=O (stereo not drawn) 30

Report growth inhibition, nothing else, for this compound: CC1(C)CC(=O)C(C(=O)Nc2cccs2)=C(O)C1 -5

Report growth inhibition, nothing else, for this compound: Nc1ccc2cc(Br)ccc2c1Br 15

Report growth inhibition, nothing else, for this compound: O=C(O)/C=C\C(=O)Nc1ccc2c(c1)Cc1cc(Cl)ccc1-2 -1

Report growth inhibition, nothing else, for this compound: COC(=O)C(Cl)(Cl)N=Nc1c(Cl)cc(Cl)c(C)c1Cl 14

Report growth inhibition, nothing else, for this compound: OC(Cc1cccc2ccccc12)CN1CCC(c2ccccc2)CC1 (stereo not drawn) 51

Report growth inhibition, nothing else, for this compound: O=C1Nc2ccc(Br)cc2C1=Nc1ccc(Cl)cc1 8

Report growth inhibition, nothing else, for this compound: [N-]=[N+]=NC1(c2ccccc2)C(=O)Nc2ccccc2C1=O (stereo not drawn) -20

Report growth inhibition, nothing else, for this compound: C/C1=C/C2OC(=O)C3(C)C2C(CC2(C)OC1=CC2=O)OC3(O)C(C)C (stereo not drawn) 21

Report growth inhibition, nothing else, for this compound: CC1CCN(CCC(=O)c2ccc([N+](=O)[O-])cc2)CC1 7

Report growth inhibition, nothing else, for this compound: O=C(NO)c1coc2ccccc2c1=O 15

Report growth inhibition, nothing else, for this compound: C1=CCN([B-](c2ccccc2)[C+]2CCCCC2)C=C1 -5

Report growth inhibition, nothing else, for this compound: CCCNC(=O)OCc1c(COC(=O)NCCC)c(-c2ccc(Cl)c(Cl)c2)n2c1CCC2 30

Report growth inhibition, nothing else, for this compound: CCN(CC)CCNc1ccc2nc(C)n3c4ccc(OC)cc4c(=O)c1c23 13

Report growth inhibition, nothing else, for this compound: CCCCCCC=C(C(=O)OCC)C(=O)OCC -11

Report growth inhibition, nothing else, for this compound: CC(C)S(=O)(=O)/C=C\S(=O)(=O)C(C)C -56

Report growth inhibition, nothing else, for this compound: CC1=NN(C(=O)c2ccccc2O)C(=O)/C1=C/c1ccco1 2

Report growth inhibition, nothing else, for this compound: CC(C)[Si]1(C(C)C)OCC2OC(n3cnc4c(N)ncnc43)C(N)C2O[Si](C(C)C)(C(C)C)O1 (stereo not drawn) 7

Report growth inhibition, nothing else, for this compound: Nc1ccc(/C=C/c2ccc3cccnc3c2)cc1 3

Report growth inhibition, nothing else, for this compound: C=C(C(=O)OC)N1C(=O)CC(C)C1=O (stereo not drawn) 32

Report growth inhibition, nothing else, for this compound: CN(C)CCNc1ccc2ncn3c4ccc(O)cc4c(=O)c1c23 13

Report growth inhibition, nothing else, for this compound: Cc1c2cc[n+](CCO)cc2c(C)c2c1[nH]c1ccc(O)cc12 12

Report growth inhibition, nothing else, for this compound: O=C1C(/C=C/c2ccc(Cl)cc2)=NNC2N1N=C1NC(=O)C3(NN12)c1ccccc1-c1ccccc13 (stereo not drawn) -4

Report growth inhibition, nothing else, for this compound: CC1=NN(C(=O)CC(=O)NC(=O)/C=C\c2ccccc2)C(=O)C1N=Nc1ccc([N+](=O)[O-])cc1 (stereo not drawn) -1

Report growth inhibition, nothing else, for this compound: O=[N+]([O-])c1cc(Cl)ccc1S(=O)(=O)c1ccc(Cl)cc1[N+](=O)[O-] 16

Report growth inhibition, nothing else, for this compound: CSc1nc(-c2ccccc2)nc(=[N+]2CCOCC2)s1 44

Report growth inhibition, nothing else, for this compound: CCN(CC)CCC(=O)Nc1ccc2sc3ccccc3c(=O)c2n1 -22

Report growth inhibition, nothing else, for this compound: O=C1C(=O)c2cccc([N+](=O)[O-])c2-c2ccccc21 31

Report growth inhibition, nothing else, for this compound: COC1=CCC23C(=O)C=CC(=O)C2(C1)C(=O)c1ccccc1C3=O (stereo not drawn) -2

Report growth inhibition, nothing else, for this compound: CCCCCCCCCCCNC=O 9
